target: BCL6-NCOR2(SMRT) corepressor protein-protein interaction (Homo sapiens (Human)); experiment: NanoBRET cell assay; assay type: cell-based; conditions: further generated data; transfected HEK293T cells, 6 hr; read-out: NanoBRET cell pIC50 (converted)
ENDPOINT NAME: IC50 (nM)
Answers are plain numbers, in nM.

>>> result_number("COCC(C)(O)CCn1c(=O)n(C)c2ccc(Nc3nc(N4CCC(C(=O)N(C)C)CC4)ncc3Cl)cc21 (stereo not drawn) [Example 15i]")
2190
>>> result_number("COCC1CCCN(c2ncc(Cl)c(Nc3ccc4c(c3)n(CCC(C)(C)O)c(=O)n4C)n2)C1 (stereo not drawn) [Example 35v]")
2340

Turning now to a further record.
Input line: Which IC50 value is on record for Cn1c(=O)n(CCC(C)(C)O)c2cc(Nc3nc(N4C5CC6CC(C5)CC4C6)ncc3Cl)ccc21 [Example 35t] ?
Output line: 2340
